The measurements presented in this section are drawn from ChEMBL document CHEMBL3507680.

# Measurement Protocol: Human HepG2 cell viability assay in 384 well format
# Format: toxicity, cell-based
# Design: dose 125 nL, time 70.5 hour; concentration not given beside the values
# Test Parameters: HepG2 cells, read-out: Inhibition
Checkbox rule: cytotoxicity at 70.5 h lower than -10% = True; cytotoxicity at 70.5 h not lower than -10% = False.

>>> print(df.to_string())
                                   compound  group
0  Cn1ccc2c(C(=O)N3CC[C@@]4(O)CCCC[C@H]4C3)cccc21  False
1             OC1(CN2CCC(Cc3ccccc3)CC2)CCC1  False
2  CC(C)(C)CN(CCC#N)C(=O)Nc1cccc(N2CCNC2=O)c1   True
3  CC(C)(C)C(NCC(=O)N1CCNC(=O)C1)c1ccccc1 (stereo not given)   True

Below -10% on cytotoxicity at 70.5 h? Entry COc1nn(C)cc1C(=O)NCC(=O)Nc1cccnc1
True
